System: MCF7 breast
Test: NCI tumour cell line growth inhibition, 48 h
Endpoint Label: TGI (µM)
Give bare numbers, in µM.

Record excerpt, results attached:
> print(dat)
                                   molecule  endpoint.label  assay.value
1  CC(NC(=O)c1ccc(OP(=O)(OCc2ccc([N+](=O)[O-])o2)N(C)CCCCCl)cc1)c1ccc(OCC2CCCCC2)c(C(N)=O)c1 (centres undefined)             TGI         17.1
2     COc1ccc2c(ccc3oc([N+](=O)[O-])cc32)c1             TGI            3
3  CCCCc1n(Cc2ccc3ccccc3n2)cc[n+]1Cc1ccc2ccccc2c1             TGI         2.27

Let us examine a further case.
Request: Consider the molecule shown here: COC(=O)[C@]12CC[C@@H](C)[C@H](C)[C@@H]1C1=CC[C@@H]3[C@@]4(C)C(C=O)=C[C@@](C)(COC(=O)c5ccco5)C4=CC[C@@]3(C)[C@]1(C)CC2 What is its recorded TGI?
Result: 10.3
